Form field: TGI (one value per entry).
tested on: SN12C renal; test: NCI tumour cell line growth inhibition, 48 h

{"molecule": "COC(=O)c1[nH]c(=S)[nH]c(=O)c1-c1ccc(Cl)cc1", "recorded_value": "> 50 µM"}
{"molecule": "O=C(O)C(=C\\c1ccc2c(c1)OCO2)/C(=C/c1ccc2c(c1)OCO2)C(=O)O", "recorded_value": "> 100 µM"}
{"molecule": "Clc1cccc(Cl)c1C=NC12CC3CC(CC(C3)C1)C2", "recorded_value": "> 10 µM"}
{"molecule": "O=C(CC1Sc2ccccc2NC1=O)Nc1cc(Cl)ccc1Cl (configuration not stated)", "recorded_value": "> 100 µM"}

Ask | Look up TGI for this molecule: COc1cc(/C=C/C(=O)c2sc(-n3nc(-c4ccccc4)cc3-c3ccccc3)nc2C)ccc1O
Reply | > 100 µM

Ask | Also, Cc1c(C#N)c2nnn(C)c(=O)n2c1-c1ccccc1 please.
Reply | > 100 µM

Ask | Also, O=C(O)CSSCC(=O)O please.
Reply | > 100 µM

Ask | Also, O=S1(=O)c2cnccc2NC(=NCc2cccc3ccccc23)N1c1ccccc1 please.
Reply | > 100 µM

Ask | Also, Cc1ccc2c(c1)C1(C)OC(CC(N)C1O)O2 (configuration not stated) please.
Reply | > 100 µM
